Overview of recorded kon for various binders
molecular target: T1, CD137-hisFc fusion protein (Sino Biological Cat 10041-H03H) (human, UniProt Q07011 24-186); test: BLI Octet, Fab
T1 construct: Bought; also called recombinant human CD137 (fused with human Fc and His tag); not shown: His tag and human Fc

binder	kon / M⁻¹ s⁻¹
Fab 5349 (Fab, V domains shown, Fab from E. coli; also called VH24/VL24) VH: EVQLVESGGGLVQPGGSLRLSCAASGYSITSGHYWAWIRQAPGKGLEWVSAISGSGSSTYYADSVKGRFTISRDNSKNTLYLQLNSLRAEDTAVYYCARGGSDTVLGDWFAYWGQGTLVTVSS VL: DIQLTQSPSSLSASVGDRVTITCRASQGISSSLAWYQQKPGKAPKLLIYDASNLETGVPSRFSGSGSGTDFTLTISSLQPEDFATYYCQQGYSTWTFGQGTKVEIKR	162000
Fab 5409 (Fab, V domains shown, Fab from E. coli; also called VH37/VL37) VH: EVQLVESGGGLVQPGGSLRLSCAASGYSISSGHHWAWIRQAPGKGLEWVSVISGSGSSTYYADSVKGRFTISRDNSKNTLYLQLNSLRAEDTAVYYCAREGSDTVLGDWFAYWGQGTLVTVSS VL: DIQLTQSPSSLSASVGDRVTITCRASQGISSYLAWYQQKPGKAPKLLIYDASNLETGVPSRFSGSGSGTDFTLTISSLQPEDFATYYCQQGYSTWTFGQGTKVEIKR	251000
Fab 7081 (Fab, V domains shown, Fab from E. coli; also called VH44/VL44) VH: EVQLVESGGGLVQPGGSLRLSCAASGFSLSTGGVGVGWIRQAPGKGLEWVSYISGAGGTTYYADSVKGRFTISRDNSKNTLYLQLNSLRAEDTAVYYCAREGSDAVLGDWFAYWGQGTLVTVSS VL: DIQLTQSPSSLSASVGDRVTITCRASQGISSYLAWYQQKPGKAPKLLIYDASNLETGVPSRFSGSGSGTDFTLTISSLQPEDFATYYCQQYYTTPLTFGQGTKVEIKR	287000
